# Test target: human constitutive proteasome (Beta5) (Homo sapiens (Human))
# Assay overview: Determination of Beta5 activity (fluorescence intensity assay, Suc-LLVY-AMC)
# Type: biochemical
# Condition details: purified human constitutive proteasome 1.25 nM, Suc-LLVY-AMC 40 μM
pIC50: −log10 of the molar value.
Value type: pIC50

query: Find the recorded pIC50 belonging to COc1ccc(CCC(=O)N[C@@H](CC2COc3c(C)cccc32)B(O)O)nc1 (some centres unmarked) [Compound No. 86] and report it.
result: < 5.30

query: Same thing, different molecule: COc1ccc(CCC(=O)N[C@@H](Cc2coc3c(C)c(C)ccc23)B(O)O)nc1 [Compound No. 95]
result: 5.30 to 6.30

query: Same thing, different molecule: COc1cccc(CC(=O)N[C@@H](Cc2coc3ccccc23)B(O)O)n1 [Compound No. 12]
result: 6.30 to 7.30

query: Same thing, different molecule: O=C(Cc1ccccc1)N[C@@H](C[C@H]1COc2c(Cl)cccc21)B(O)O [Compound No. 133]
result: < 5.30

query: Same thing, different molecule: CC(=O)Nc1cccc(CC(=O)N[C@@H](Cc2coc3ccccc23)B(O)O)c1 [Compound No. 32]
result: 6.30 to 7.30

query: Same thing, different molecule: O=C(Cc1cccc(OCCO)c1)N[C@@H](Cc1coc2ccccc12)B(O)O [Compound No. 41]
result: 6.30 to 7.30

query: Same thing, different molecule: O=C(Cc1ccccc1OCCO)N[C@@H](Cc1coc2ccccc12)B(O)O [Compound No. 50]
result: 5.30 to 6.30

query: Same thing, different molecule: COc1ccc(CC(C(=O)N[C@@H](Cc2coc3ccccc23)B(O)O)c2ccccc2)cc1 (some centres unmarked) [Compound No. 71]
result: 5.30 to 6.30

query: Same thing, different molecule: Cc1ccc(C[C@H](NC(=O)C2(c3ccccc3)CC2)B(O)O)c(C)c1 [Compound No. 36]
result: < 5.30

query: Same thing, different molecule: N#Cc1cccc(CC(=O)N[C@@H](Cc2coc3ccccc23)B(O)O)c1 [Compound No. 123]
result: 5.30 to 6.30

Further cases:
query: Find the recorded pIC50 belonging to COc1ccc(CCC(=O)N[C@@H](CC2COc3c2ccc(C)c3C)B(O)O)nc1 (some centres unmarked) [Compound No. 102] and report it.
result: < 5.30

query: Same thing, different molecule: O=C(N[C@H](Cc1coc2ccccc12)B(O)O)[C@H](CO)c1ccccc1 [Compound No. 56]
result: < 5.30

query: Same thing, different molecule: COc1ccc(CC(=O)N[C@@H](C[C@@H]2COc3c(C)cccc32)B(O)O)cc1 [Compound No. 89]
result: < 5.30

query: Same thing, different molecule: Cc1ccc2c(c1C)OCC2C[C@H](NC(=O)Cc1ccccc1)B(O)O (some centres unmarked) [Compound No. 101]
result: < 5.30

query: Same thing, different molecule: COc1cccc2c(C[C@H](NC(=O)Cc3ccccc3)B(O)O)coc12 [Compound No. 92]
result: 6.30 to 7.30

query: Same thing, different molecule: Cc1c(Cl)ccc2c(C[C@H](NC(=O)Cc3ccccc3)B(O)O)coc12 [Compound No. 126]
result: 5.30 to 6.30

query: Same thing, different molecule: COc1ccc(CC(=O)N[C@@H](C[C@H]2COc3ccccc32)B(O)O)cc1 [Compound No. 115]
result: < 5.30

query: Same thing, different molecule: O=C(N[C@@H](Cc1coc2ccccc12)B(O)O)C(F)(F)c1ccccc1 [Compound No. 23]
result: 5.30 to 6.30

query: Same thing, different molecule: N#Cc1ccccc1CC(=O)N[C@@H](C[C@@H]1COc2c(Cl)cccc21)B(O)O [Compound No. 134]
result: 5.30 to 6.30

query: Same thing, different molecule: O=C(Cc1ncccc1C(=O)N1CCOCC1)N[C@@H](Cc1coc2ccccc12)B(O)O [Compound No. 119]
result: 5.30 to 6.30

###

pIC50: −log10 of the molar value.
# collection of pIC50 values tested on human constitutive proteasome (Beta5) (Homo sapiens (Human), UniProt P28074)

Below: 3 compounds and their reported pIC50.
query: Find the recorded pIC50 belonging to O=C(Cc1ccccc1)N[C@@H](Cc1cc2ccccc2o1)B(O)O and report it.
result: < 5.30

query: Same thing, different compound: CC(=O)Nc1ccc(CC(=O)N[C@@H](Cc2coc3ccccc23)B(O)O)cc1
result: 6.30 to 7.30

query: Same thing, different compound: COc1cccc(OC)c1CC(=O)N[C@@H](Cc1ccc(C)cc1C)B(O)O
result: < 5.30

Further cases:
query: Find the recorded pIC50 belonging to C[C@H](C(=O)N[C@@H](Cc1coc2ccccc12)B(O)O)c1ccccc1C(=O)N(C)C and report it.
result: < 5.30

query: Same thing, different compound: CC(=O)Nc1ccc(CC(=O)N[C@@H](Cc2ccc(C)cc2C)B(O)O)cc1
result: 5.30 to 6.30

query: Same thing, different compound: CCNC(=O)c1ccccc1CC(=O)N[C@@H](Cc1coc2ccccc12)B(O)O
result: 5.30 to 6.30

query: Same thing, different compound: CCOC(=O)Nc1cccc(CC(=O)N[C@@H](Cc2coc3ccccc23)B(O)O)c1
result: 5.30 to 6.30

query: Same thing, different compound: C[C@H](C(=O)N[C@@H](Cc1coc2ccccc12)B(O)O)c1ccccc1
result: 5.30 to 6.30

###

List of IC50 values.
# Test target: human constitutive proteasome (Beta5) (Homo sapiens (Human), UniProt P28074)

Below: 2 compounds and their reported IC50.
query: Find the recorded IC50 belonging to CC(=O)Nc1ccccc1CC(=O)N[C@@H](Cc1coc2ccccc12)B(O)O and report it.
result: 0.5 to 5 µM

query: Same thing, different compound: O=C(COc1cccnc1)N[C@@H](Cc1coc2ccccc12)B(O)O
result: 0.05 to 0.5 µM

Further cases:
query: Find the recorded IC50 belonging to O=C(Cc1ccncc1)N[C@@H](Cc1coc2ccccc12)B(O)O and report it.
result: 0.5 to 5 µM

query: Same thing, different compound: N#Cc1ccccc1CC(=O)N[C@@H](Cc1coc2c(Cl)cccc12)B(O)O
result: 0.5 to 5 µM

query: Same thing, different compound: Cc1ccc2c(C[C@H](NC(=O)Cc3ccccc3)B(O)O)coc2c1C
result: 0.5 to 5 µM

query: Same thing, different compound: COc1cc(CC(=O)N[C@@H](Cc2coc3ccccc23)B(O)O)cc(OC)c1OC
result: 0.05 to 0.5 µM

query: Same thing, different compound: Cc1ccc(C[C@H](NC(=O)Cc2ccc(NC(=O)C(F)(F)F)cc2)B(O)O)c(C)c1
result: 0.5 to 5 µM

query: Same thing, different compound: O=C(Cc1ccccn1)NC(Cc1coc2ccccc12)B(O)O (stereo not drawn)
result: 0.5 to 5 µM

query: Same thing, different compound: O=C(Cc1cccc(OCCCO)c1)N[C@@H](Cc1coc2ccccc12)B(O)O
result: 0.05 to 0.5 µM
